assay method text: Metabolic stability in human liver microsomes assessed compound remaining measured after 10 mins in presence of NADPH
Format: ADME, Microsome
settings: read-out: Stability
Sorting guide: entries reporting remaining at 10 min beneath 90% go in the satisfied pile, the rest go in the not satisfied pile.

Consider the worked cases shown below.
>  <chemical smiles>
c1cnc2c(c1)CN[C@@H](CN(CCCC1CCNCC1)[C@H]1CCCc3cccnc31)C2

>  <category>
not satisfied

$$$$
>  <chemical smiles>
NC(=O)NC/C=C\CN(C[C@H]1Cc2ncccc2CN1)[C@H]1CCCc2cccnc21

>  <category>
not satisfied

$$$$
>  <chemical smiles>
CN(C[C@H]1Cc2ncccc2CN1)[C@H]1CCCc2cccnc21

>  <category>
not satisfied

$$$$
>  <chemical smiles>
NCCCCN(C[C@H]1Cc2cccnc2CN1)[C@H]1CCCc2cccnc21

>  <category>
not satisfied

$$$$
>  <chemical smiles>
NC/C=C/CN(C[C@H]1Cc2ncccc2CN1)[C@H]1CCCc2cccnc21

>  <category>
satisfied

$$$$
>  <chemical smiles>
CN(CCCCN(C[C@H]1Cc2ncccc2CN1)[C@H]1CCCc2cccnc21)C1CCOCC1

>  <category>
not satisfied

$$$$
>  <chemical smiles>
NCCCCN(C[C@@H]1Cc2nccnc2CN1)[C@H]1CCCc2cccnc21

>  <category>
satisfied

$$$$
>  <chemical smiles>
CCN(CC)CCCCN(C[C@H]1Cc2ncccc2CN1)[C@H]1CCCc2cccnc21

>  <category>
satisfied

$$$$

Consider the record given below.
Req: Does this molecule meet the criterion remaining at 10 min < 90%? `NCCCCN(C[C@H]1Cc2nccnc2CN1)[C@H]1CCCc2cccnc21`
Resp: satisfied

* * *

assay method text: Volume of distribution in mouse at 3 mg/kg, measured at 24 hrs by LC-MS analysis
Assay type: ADME, organism-based
settings: in vivo
experimental readout: Vd (L/kg)
One number for each entry, in L/kg.

>  <molecule>
CN(CCCCN(C[C@H]1Cc2ncccc2CN1)[C@H]1CCCc2cccnc21)C1CCC(F)(F)CC1

>  <unit label>
L/kg

>  <readout number>
96.3

$$$$

With those in mind, consider the next molecule.
Req: Give the reported value of Vd for this record: NCCCCN(Cc1nc2ccccc2[nH]1)[C@H]1CCCc2cccnc21 [MAVORIXAFOR]
Resp: 32.2

* * *

target system: Neuronal acetylcholine receptor subunit alpha-7 (Homo sapiens)
Sequence (P36544 whole entry): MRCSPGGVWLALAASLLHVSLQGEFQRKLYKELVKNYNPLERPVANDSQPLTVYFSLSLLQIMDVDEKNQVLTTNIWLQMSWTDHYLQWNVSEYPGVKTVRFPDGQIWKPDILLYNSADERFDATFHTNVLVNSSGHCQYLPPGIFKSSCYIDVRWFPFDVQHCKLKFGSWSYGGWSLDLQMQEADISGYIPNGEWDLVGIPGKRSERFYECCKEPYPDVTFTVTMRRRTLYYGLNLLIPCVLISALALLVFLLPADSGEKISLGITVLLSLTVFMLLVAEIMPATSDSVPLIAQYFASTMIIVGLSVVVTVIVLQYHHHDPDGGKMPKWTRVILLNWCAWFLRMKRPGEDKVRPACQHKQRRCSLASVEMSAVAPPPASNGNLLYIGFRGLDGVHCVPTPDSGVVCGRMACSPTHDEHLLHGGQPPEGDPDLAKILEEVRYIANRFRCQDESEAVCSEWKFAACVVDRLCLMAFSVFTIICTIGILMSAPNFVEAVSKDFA
assay method text: Inhibition of alpha7 nicotinic acetylcholine receptor (unknown origin)
pIC50: −log10 of the molar value.
Could you please report measured pIC50 for the items listed next?

>  <chemical smiles>
CN(CCCCN(C[C@H]1Cc2ncccc2CN1)[C@H]1CCCc2cccnc21)C1CCC(F)(F)CC1

>  <target system>
Neuronal acetylcholine receptor subunit alpha-7 (Homo sapiens)

>  <pIC50>
< 4.52

$$$$
>  <chemical smiles>
NCCCCN(Cc1nc2ccccc2[nH]1)[C@H]1CCCc2cccnc21

>  <target system>
Neuronal acetylcholine receptor subunit alpha-7 (Homo sapiens)

>  <pIC50>
< 4.52

$$$$
>  <chemical smiles>
c1cnc2c(c1)CN[C@@H](CN(CCCCNC1COC1)[C@H]1CCCc3cccnc31)C2

>  <target system>
Neuronal acetylcholine receptor subunit alpha-7 (Homo sapiens)

>  <pIC50>
< 4.52

$$$$

Now turn to the next compound.
Req: Supply recorded pIC50 for `NCCCCN(C[C@H]1Cc2ncccc2CN1)[C@H]1CCCc2cccnc21` here.
Resp: 5.77
